Value source: patent US20240270821A1

Consider the following binders; for each one, report its Relative cAMP EC50.
- target-or-test-system: hGLP-1R (Homo sapiens, UniProt P43220)
- Sequence (P43220 24-463): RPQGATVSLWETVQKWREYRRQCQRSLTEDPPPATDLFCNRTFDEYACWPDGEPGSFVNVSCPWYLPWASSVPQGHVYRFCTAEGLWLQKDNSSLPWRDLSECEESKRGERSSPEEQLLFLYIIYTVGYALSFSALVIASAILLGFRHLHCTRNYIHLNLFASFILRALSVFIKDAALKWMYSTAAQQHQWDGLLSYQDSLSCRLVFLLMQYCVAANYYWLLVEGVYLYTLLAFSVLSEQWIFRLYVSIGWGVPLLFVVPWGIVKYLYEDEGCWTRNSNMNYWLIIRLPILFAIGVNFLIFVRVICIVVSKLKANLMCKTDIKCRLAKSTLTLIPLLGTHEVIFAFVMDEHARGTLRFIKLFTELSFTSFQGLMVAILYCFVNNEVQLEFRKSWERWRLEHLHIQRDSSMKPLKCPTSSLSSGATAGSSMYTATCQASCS
- procedure-details: cell-based or functional assay
Starred links: 1 amine or outer side, 2 acyl side, 3 side chain; linkers in the order of their positions; H or OH if unused. Non-standard residues stand in square brackets, D forms with d. Groups on a side chain read outwards from the residue. No end group written: not given here. *: point of attachment. C20 diacid = O=C(O)CCCCCCCCCCCCCCCCCCC(=O)*; αMePhe(2-F) = C[C@](N)(Cc1ccccc1F)C(=O)O; γGlu = O=C(O)[C@H](CCC(=O)[*:2])N[*:1]; αMeL = CC(C)C[C@](C)(N)C(=O)O; AEEA = NCCOCCOCC(=O)O; Aib = CC(C)(N)C(=O)O
Field: numeric (nM). Do not append units.

Provide one value: measured Relative cAMP EC50 of Y[Aib]QGT[αMePhe(2-F)]TSDYSKILDKIAQKAFIEYLIEGGPSSGAPPPSEG-NH2 (not fully specified (residue 20)) [Example 355]
1.01

Provide one value: measured Relative cAMP EC50 of YXQGTFTSDFSXXLDKKAQXAFIEYLLEAGPSSGEPPPSEG (synthetic construct; SITE 2: note = 2-Aminoisobutyric Acid; SITE 12: note = L-ornithine; SITE 13: note = alpha-methyl-leucine; SITE 17: note = Lysine is chemically modified through conjugation of the epsilon-amino group of the Lysine side chain with (2-[2-(2-Amino-ethoxy)-ethoxy]-acetyl)2-(gamma-Glu)) [Example 116]
7.83

Provide one value: measured Relative cAMP EC50 of YXQGTFTSDFSXXLDKKAQXAFIEYLLEAGPSSGEPPPSGE (synthetic construct; SITE 2: note = 2-Aminoisobutyric Acid; SITE 12: note = L-ornithine; SITE 13: note = alpha-methyl-leucine; SITE 17: note = Lysine is chemically modified through conjugation of the epsilon-amino group of the Lysine side chain with (2-[2-(2-Amino-ethoxy)-ethoxy]-acetyl)2-(gamma-Glu)) [Example 117]
6.4

Provide one value: measured Relative cAMP EC50 of YXQGTXTSDXSIXLDKKAQXAFIEYLEEGGPSSGEPPPSGSEE (non-natural residues; lipidated Lys; C-terminal amide; synthetic construct; SITE 2: note = 2-Aminoisobutyric Acid; SITE 6: note = alpha-methyl-2-fluoro-L-phenylalanine; SITE 10: note = 3-(4-Pyridyl)-L-alanine; SITE 13: note = alpha-methyl-leucine; SITE 17: note = Lysine is chemically modified through conjugation of the epsilon-amino group of the Lysine) [Example 630]
0.762

Provide one value: measured Relative cAMP EC50 of Y[Aib]QGTFTSDFSK[αMeL]LDKK([AEEA-γGlu-C20 diacid])AQQAFIEYLLA[Aib]GPSSGEPPPSEG-NH2 [Example 19]
3.96

Provide one value: measured Relative cAMP EC50 of Y[Aib]QGT[αMePhe(2-F)]TSDYSKILDKIAQKAFIQYLIEGGPSSGEPPPSEG-NH2 (not fully specified (residue 20)) [Example 354]
1.21

Provide one value: measured Relative cAMP EC50 of Y[Aib]QGTFTSDYSI[αMeL]LDKQAAK([AEEA-AEEA-γGlu-C20 diacid])QFVEWLLAGGPSSGEPPPGEG-NH2 [Example 320]
2.58

Provide one value: measured Relative cAMP EC50 of Y[Aib]QGT[αMePhe(2-F)]TSDYSKLLDKIAQKAFIEYLIEGGPSSGAPPPSEG-NH2 (not fully specified (residue 20)) [Example 339]
1.06

Provide one value: measured Relative cAMP EC50 of YXQGTFTSDFSKXLDKKAQXAFIQWLLEGGPSSGAPPPSEG (Lys acylated; non-natural residues; C-amide; synthetic construct; SITE 2: note = 2-Aminoisobutyric Acid; SITE 13: note = alpha-methyl-leucine; SITE 17: note = Lysine is chemically modified through conjugation of the epsilon-amino group of the Lysine side chain with (2-[2-(2-Amino-ethoxy)-ethoxy]-acetyl)-(gamma-Glu)-CO-(CH2) 18-CO2H; SITE 20: n) [Example 39]
2.13

Provide one value: measured Relative cAMP EC50 of YXQGTFTSDFSKXLDKKAQXAFIEYLLEGGPSSGAPPPSEG (synthetic construct; SITE 2: note = 2-Aminoisobutyric Acid; SITE 13: note = alpha-methyl-leucine; SITE 17: note = Lysine is chemically modified through conjugation of the epsilon-amino group of the Lysine side chain with (gamma-Glu)2-CO-(CH2)16-CO2H; SITE 20: note = 2-Aminoisobutyric Acid; SITE 41:) [Example 58]
2.93

Provide one value: measured Relative cAMP EC50 of YXQGTFTSDXSXXLDKKAQXAFIEYLIAGGESSGAPPPSGSEE (synthetic construct; SITE 2: note = 2-Aminoisobutyric Acid; SITE 10: note = 3-(4-Pyridyl)-L-alanine; SITE 12: note = L-ornithine; SITE 13: note = alpha-methyl-leucine; SITE 17: note = Lysine is chemically modified through conjugation of the epsilon-amino group of the Lysine side chain with (gamma-Gl)) [Example 964]
2.67

Provide one value: measured Relative cAMP EC50 of YXQGTXTSDXSIXLDKKAQXXFIEYLQEGGPSSGEPPPSGSEE (non-natural residues; K acylated (γGlu)2-C18 diacid; C-amide; synthetic construct; SITE 2: note = 2-Aminoisobutyric Acid; SITE 6: note = alpha-methyl-2-fluoro-L-phenylalanine; SITE 10: note = 3-(4-Pyridyl)-L-alanine; SITE 13: note = alpha-methyl-leucine; SITE 17: note = Lysine is chemically modified through conjugation of the epsilon-amino group of the Lysine) [Example 639]
0.374

Provide one value: measured Relative cAMP EC50 of YXQGTXTSDYXIXLDXKAQXXFIEYLLEGGPSSGEPPPE (synthetic construct; SITE 2: note = 2-Aminoisobutyric Acid; SITE 6: note = alpha-methyl-L-phenylalanine; SITE 11: note = alpha-methyl-L-serine; SITE 13: note = alpha-methyl-leucine; SITE 16: note = L-ornithine; SITE 17: note = Lysine is chemically modified through conjugation of the epsilon-amino gr) [Example 391]
0.199

Provide one value: measured Relative cAMP EC50 of YXQGTXTSDXXIXLDXKAQXEFIEXLIEGGPPSXEPPPEGE (non-natural residues, acylated Lys, C-terminal amide; synthetic construct; SITE 2: note = 2-Aminoisobutyric Acid; SITE 6: note = alpha-methyl-2-fluoro-L-phenylalanine; SITE 10: note = 3-(4-Pyridyl)-L-alanine; SITE 11: note = alpha-methyl-L-serine; SITE 13: note = alpha-methyl-leucine; SITE 16: note = L-ornithine; SITE 17: note = Lysine is chemically mo) [Example 1190]
0.765

Provide one value: measured Relative cAMP EC50 of YXQGTFTSDFSXXLDKKAQXAFIEWLLAGGPSSGEPPPSGE (synthetic construct; SITE 2: note = 2-Aminoisobutyric Acid; SITE 12: note = L-ornithine; SITE 13: note = alpha-methyl-leucine; SITE 17: note = Lysine is chemically modified through conjugation of the epsilon-amino group of the Lysine side chain with (2-[2-(2-Amino-ethoxy)-ethoxy]-acetyl)-(gamma-Glu)) [Example 103]
3.27

Provide one value: measured Relative cAMP EC50 of YXQGTFTSDFSXXLDKKAQXAFIEYLLAGGPSSGAPPPEGS (synthetic construct; SITE 2: note = 2-Aminoisobutyric Acid; SITE 12: note = L-ornithine; SITE 13: note = alpha-methyl-leucine; SITE 17: note = Lysine is chemically modified through conjugation of the epsilon-amino group of the Lysine side chain with (2-[2-(2-Amino-ethoxy)-ethoxy]-acetyl)-(gamma-Glu)) [Example 93]
2.63

Provide one value: measured Relative cAMP EC50 of YXQGTXTSDXXIXLDXKAQXEFIEXLIEGGPSSGAPPPSGE (non-natural residues; acylated Lys; C-terminal amide; synthetic construct; SITE 2: note = 2-Aminoisobutyric Acid; SITE 6: note = alpha-methyl-L-phenylalanine; SITE 10: note = 3-(4-Pyridyl)-L-alanine; SITE 11: note = alpha-methyl-L-serine; SITE 13: note = alpha-methyl-leucine; SITE 16: note = L-ornithine; SITE 17: note = Lysine is chemically modified th) [Example 1170]
0.395

Provide one value: measured Relative cAMP EC50 of YXQGTFTSDFSXXLDKKAQXAFIEYLLEAGPSSGAPPPSGH (synthetic construct; SITE 2: note = 2-Aminoisobutyric Acid; SITE 12: note = L-ornithine; SITE 13: note = alpha-methyl-leucine; SITE 17: note = Lysine is chemically modified through conjugation of the epsilon-amino group of the Lysine side chain with (2-[2-(2-Amino-ethoxy)-ethoxy]-acetyl)-(gamma-Glu)) [Example 259]
1.47

Provide one value: measured Relative cAMP EC50 of YXQGTFTSDFSXXLDKKAQXAFIEYLLEGGPSSGAPPPSEG (synthetic construct; SITE 2: note = 2-Aminoisobutyric Acid; SITE 12: note = L-ornithine; SITE 13: note = alpha-methyl-leucine; SITE 17: note = Lysine is chemically modified through conjugation of the epsilon-amino group of the Lysine side chain with (2-[2-(2-Amino-ethoxy)-ethoxy]-acetyl)-(gamma-Glu)) [Example 50]
4.65

Provide one value: measured Relative cAMP EC50 of YXQGTXTSDXXIXLDXKAAXEFIEXLLEGGPSSGAPPPSGS (synthetic construct; SITE 2: note = 2-Aminoisobutyric Acid; SITE 6: note = alpha-methyl-2-fluoro-L-phenylalanine; SITE 10: note = 3-(4-Pyridyl)-L-alanine; SITE 11: note = alpha-methyl-L-serine; SITE 13: note = alpha-methyl-leucine; SITE 16: note = L-ornithine; SITE 17: note = Lysine is chemically mo) [Example 672 (SEQ ID NO: 678)]
0.389

Provide one value: measured Relative cAMP EC50 of YXQGTFTSDXXQXLDXKAQXQFIQXLLEXGPSSGAPPPSGGGE (not fully specified; non-natural residues (Aib, 4Pal, αMeS, Iva, αMeY); lipidated K; amide; synthetic construct; SITE 2: note = 2-Aminoisobutyric Acid; SITE 10: note = 3-(4-Pyridyl)-L-alanine; SITE 11: note = alpha-methyl-L-serine; SITE 13: note = alpha-methyl-leucine; SITE 16: note = L-ornithine; SITE 17: note = Lysine is chemically modified through conjugation of the epsilon-amino group) [Example 1139]
1.85

Provide one value: measured Relative cAMP EC50 of YXQGTXTSDXXIXLDXKAQXEFIEXLIEGGPSSGEPPPSGGGE (non-natural residues; acylated Lys C18 diacid; C-term amide; synthetic construct; SITE 2: note = 2-Aminoisobutyric Acid; SITE 6: note = alpha-methyl-L-phenylalanine; SITE 10: note = 3-(4-Pyridyl)-L-alanine; SITE 11: note = alpha-methyl-L-serine; SITE 13: note = alpha-methyl-leucine; SITE 16: note = L-ornithine; SITE 17: note = Lysine is chemically modified th) [Example 1169]
0.613
